Assay: ATG_AP_1_CIS: Attagene CIS-FACTORIAL HepG2 Assay for human Activator Protein 1 (AP-1) (AID 2282931)
Details: HepG2 Attagene cis-factorial AP-1 reporter mRNA; actives raise or lower the signal
Active and inactive are the calls of the source. Rule for the calls: active = hit-call score of the fitted dose curve at least 0.9, where 1 is the maximum; inactive = score below 0.9.
The reply should be one of these categories: active, inactive

# example entries with known answers
INSERT INTO results (compound, class_label) VALUES
  ('CC1CCC(C(C)CS)CC1S (stereo not given)', 'inactive'),
  ('Cc1ccc(C(C)C)cc1O', 'inactive'),
  ('COC(=O)Cc1cccc2ccccc12', 'inactive'),
  ('Nc1cc(Cl)c(O)c(Cl)c1', 'inactive'),
  ('O=C(O)c1snc(Cl)c1Cl', 'active'),
  ('CC(=O)OCC=Cc1ccccc1', 'inactive'),
  ('CCCCCCCCCCCCCCCC(=O)O', 'inactive'),
  ('CCCCOCCOCCOCCOCCO', 'inactive');

Ask | Record lookup: outcome of this test for O=C(O)CCSCCC(=O)O ?
Reply | inactive

Ask | // param item: Cc1ccc(C=O)cc1 ; yields the recorded call
Reply | inactive

Ask | For this compound, state the assay outcome: CCN(CC)c1ccc2c(-c3ccccc3C(=O)O)c3ccc(=[N+](CC)CC)cc-3oc2c1
Reply | inactive

Ask | Given CCOC(=S)SSC(=S)OCC , state the outcome it received in this test.
Reply | inactive

Ask | Which outcome did this test record for the compound CCCCCCCCCCC(CO)CCCCCCCC (stereo not given) ?
Reply | inactive

Ask | Hello, I am checking results. What call was entered for Cc1cccc(C)c1[N+](=O)[O-] ?
Reply | inactive

Ask | I would be grateful if you could indicate the recorded call for Cc1ccc(C(=O)c2cc(O)c(O)c([N+](=O)[O-])c2)cc1 .
Reply | inactive

Ask | So what was the verdict on O=c1[nH]c(=O)n([C@H]2CCCO2)cc1F in this test?
Reply | inactive

Ask | Short answer needed: outcome of this test for COc1cc2ncnc(Nc3cccc(Cl)c3)c2cc1OC ?
Reply | inactive

Ask | Query: recorded result category for CC(=O)[C@H]1CC[C@H]2[C@@H]3CC=C4C[C@@H](O)CC[C@]4(C)[C@H]3CC[C@]12C in this test
Reply | inactive

Ask | Field: outcome | Entry: CC[Si](OC(C)=O)(OC(C)=O)OC(C)=O
Reply | inactive

Ask | Per the records of this test, what outcome belongs to COc1ccc(Nc2ccccc2)c(C)c1 ?
Reply | active

----------
Assay: ACEA_ER_AUC_viability: ACEA Biosciences xCELLigence Real-Time Cell Analysis on Estrogen Receptor Agonism for Viability (AID 2283782);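 note: continuous compound exposure with impedance area under curve over 80 h; hit means loss of impedance signal meaning reduced cell growth or viability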
Records with an inconclusive call do not appear. The source made the active and inactive calls. The calls were made as follows: active = hit-call score of the fitted dose curve at least 0.9, where 1 is the maximum; inconclusive = response in the unintended direction; inactive = score below 0.9.
Use one of these outcomes when replying: y for active, n for inactive

Previously resolved entries follow.
INSERT INTO measurements (molecule, class_label) VALUES
  ('CC(=O)OCCOC(C)=O', 'n'),
  ('C[Si](O[Si](C)(C)C)O[Si](C)(C)C', 'n'),
  ('O=C1CCCCCCCCCCOCCCCO1', 'y'),
  ('OCc1cccnc1', 'n');

Ask | Give the logged outcome of this assay for the following molecule: Nc1ccc(S(N)(=O)=O)cc1
Reply | n

Ask | Per the records of this test, what outcome belongs to CCCC(=O)OCCC(C)CCC=C(C)C (stereo unspecified) ?
Reply | y

Ask | Could you check what this test reported for CCCCCCCCCCCCCCCCCC(=O)OCC(CC)CCCC (stereo unspecified) ?
Reply | n

Ask | Hi, sorry to bother you, what did the test record for Nc1cc(N)cc(C(=O)O)c1 ?
Reply | n

Ask | Short answer needed: outcome of this test for CC(=O)OCc1ccc2c(c1)OCO2 ?
Reply | n

----------
Experiment: ATG_CMV_CIS: Attagene CIS-FACTORIAL HepG2 Assay for human CMV (Internal Marker) (AID 2282928);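 note: endpoint acts as a background internal control marker rather than a target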
Settings: HepG2 CMV promoter reporter, transcription factor profiling; actives raise or lower the signal
The source made the active and inactive calls. The calls were made as follows: active = hit-call score of the fitted dose curve at least 0.9, where 1 is the maximum; inactive = score below 0.9.
OUTCOME MEASURE: outcome

INSERT INTO results (input_smiles, result_value) VALUES
  ('COc1ccc(OC)c(OC)c1', 'inactive'),
  ('CC(C)(C)c1cc(CCC(=O)NN)cc(C(C)(C)C)c1O', 'inactive'),
  ('CC(C)(N)CO', 'inactive');

----------
Assay: TOX21_p53_BLA_p5_viability: Viability Assessment in the Tox21 HCT-116 p53 Agonism Beta-lactamase Assay, Phase 5 (AID 2283600)
Source text: TOX21_p53_BLA_p5 is a cell-based, single-readout assay that uses HCT116, a human intestinal cell line, […] in a 1536-well plate.TOX21_p53_BLA_p5_viability is an assay readout measuring cellular ATP content and detected with CellTiter-Glo Luciferase-coupled ATP quantitation.TOX21_p53_BLA_p5_viability used a type of viability reporter where loss-of-signal activity can be used to understand changes in the cell viability. […]
Records with an inconclusive call do not appear. The source made the active and inactive calls. The calls were made as follows: active = hit-call score of the fitted dose curve at least 0.9, where 1 is the maximum; inconclusive = response in the unintended direction; inactive = score below 0.9.
OUTCOME MEASURE: AC50

Example results:
INSERT INTO results (compound, result_value) VALUES
  ('CCCCCCCCCCN', 'inactive'),
  ('CCC(=O)OCCC(C)CCC=C(C)C (centres undefined)', 'inactive'),
  ('c1ccc2c(c1)c1cccc3ccc4cccc2c4c31', 'inactive'),
  ('CCCCNC(=O)NS(=O)(=O)c1ccc(N)cc1', 'inactive'),
  ('Cc1ccc(C(=O)c2cc(O)c(O)c([N+](=O)[O-])c2)cc1', 'inactive'),
  ('CCCCCCCCCCCCCOS(=O)(=O)O', '66.6 µM (active)');

Now turn to the next compound.
Ask | AC50 for C[Si](O[Si](C)(C)C)O[Si](C)(C)C ?
Reply | inactive

----------
Molecular target: Paired box protein Pax-6 (Homo sapiens) (UniProt P26367)
Sequence (P26367 whole entry, looked up): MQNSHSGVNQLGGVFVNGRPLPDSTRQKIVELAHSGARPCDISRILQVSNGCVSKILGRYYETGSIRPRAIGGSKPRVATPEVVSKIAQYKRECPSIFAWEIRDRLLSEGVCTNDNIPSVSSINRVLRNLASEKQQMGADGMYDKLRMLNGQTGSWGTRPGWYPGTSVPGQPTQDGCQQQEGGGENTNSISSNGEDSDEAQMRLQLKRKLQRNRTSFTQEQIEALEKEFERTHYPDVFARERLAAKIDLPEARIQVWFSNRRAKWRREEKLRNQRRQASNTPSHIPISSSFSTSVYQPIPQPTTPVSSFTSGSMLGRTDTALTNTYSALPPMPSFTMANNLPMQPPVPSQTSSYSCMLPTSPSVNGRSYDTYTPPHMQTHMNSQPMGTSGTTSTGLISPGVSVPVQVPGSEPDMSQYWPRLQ
Test: ATG_Pax6_CIS: Attagene CIS-FACTORIAL HepG2 Assay for human Paired Box 6 (PAX6) (AID 2282956)
Conditions: HepG2 CIS-FACTORIAL PAX6 reporter transcription, RNA readout; actives raise or lower the signal
The source made the active and inactive calls. Rule for the calls: active = hit-call score of the fitted dose curve at least 0.9, where 1 is the maximum; inactive = score below 0.9.
A correct response names exactly one class from Y = active, N = inactive

Past entries and their recorded results:
INSERT INTO assay_data (molecule, class_label) VALUES
  ('Nc1cccc(S(=O)(=O)c2cccc(N)c2)c1', 'N'),
  ('CCc1ccc(C=O)cc1', 'N'),
  ('O=C=NC1CCC(CC2CCC(N=C=O)CC2)CC1 (centres undefined)', 'N'),
  ('N#Cc1nc(Cl)c(Cl)c(Cl)c1Cl', 'Y');

Ask | What outcome does the record of this test show for CCCCC[Si](OCC)(OCC)OCC ?
Reply | N

Ask | What was the test verdict on C=C(C)C(=O)O ?
Reply | N

Ask | Give the logged outcome of this assay for the following molecule: CCCC/C=C\CCCCCCCCCC=O
Reply | N

Ask | Test call, this molecule: CC(c1cc2ccccc2s1)N(O)C(N)=O (centres undefined)
Reply | N

Ask | Call for entry O=[N+]([O-])c1ccc(Nc2ccc(Nc3ccccc3)c(S(=O)(=O)O)c2)c([N+](=O)[O-])c1 :
Reply | N

Ask | // outcome(item) with item = CC(=O)O[C@H](CC(=O)[O-])C[N+](C)(C)C
Reply | N

Ask | # outcome recorded in this test, key = C[Si](O[Si](C)(C)C)O[Si](C)(C)C
Reply | N

Ask | Per the records of this test, what outcome belongs to O=C(O)CCCCCCCC(=O)O ?
Reply | N

Ask | Kindly provide the recorded test outcome for the following molecule: CC(C)=CCO
Reply | N

----------
Assay: ATG_DR4_LXR_CIS: Attagene CIS-FACTORIAL HepG2 Assay for human Liver X Receptor (LXR), DR4 submotif (AID 2282929)
Settings: HepG2 Attagene DR4 cis-reporter, mRNA transcription; actives raise or lower the signal
Active and inactive are the calls of the source. How the source made its calls: active means hit-call score of the fitted dose curve at least 0.9, where 1 is the maximum; inactive means score below 0.9.
Write down one outcome, taken from 1 = active, 0 = inactive

Example entries and their recorded answers appear below.
INSERT INTO measurements (molecule, class_label) VALUES
  ('BrC1CCC(Br)C(Br)CCC(Br)C(Br)CCC1Br (stereo unspecified)', 0),
  ('O=[N+]([O-])c1ccc(Nc2ccc(Nc3ccccc3)c(S(=O)(=O)O)c2)c([N+](=O)[O-])c1', 1),
  ('CSc1nc(NC2CC2)nc(NC(C)(C)C)n1', 0),
  ('CO[Si](C)(OC)c1ccccc1', 0);

Ask | What was the test verdict on NCCNCCN ?
Reply | 0

Ask | Which outcome did this test record for the molecule C=CC(C)(C)O ?
Reply | 0

Ask | GET /call?item= Cc1ccc(C=O)s1 returns the recorded outcome of this test.
Reply | 0

----------
Molecular target: Nuclear respiratory factor 1 (Homo sapiens) (UniProt Q16656)
Sequence (Q16656 whole entry, looked up): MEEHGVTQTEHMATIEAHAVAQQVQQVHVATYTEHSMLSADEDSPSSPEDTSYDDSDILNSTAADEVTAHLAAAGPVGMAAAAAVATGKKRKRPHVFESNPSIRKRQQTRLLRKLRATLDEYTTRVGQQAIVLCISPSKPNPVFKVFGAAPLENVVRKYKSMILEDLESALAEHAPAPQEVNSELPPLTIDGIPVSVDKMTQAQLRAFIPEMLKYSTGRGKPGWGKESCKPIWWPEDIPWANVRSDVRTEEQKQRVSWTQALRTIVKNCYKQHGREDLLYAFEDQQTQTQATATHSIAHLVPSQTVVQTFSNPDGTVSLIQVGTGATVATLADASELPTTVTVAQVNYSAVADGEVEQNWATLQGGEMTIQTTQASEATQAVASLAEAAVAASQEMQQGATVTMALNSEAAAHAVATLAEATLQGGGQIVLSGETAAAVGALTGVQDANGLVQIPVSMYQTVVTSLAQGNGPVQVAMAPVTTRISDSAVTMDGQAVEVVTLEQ
Experiment: ATG_NRF1_CIS: Attagene CIS-FACTORIAL HepG2 Assay for human Nuclear Respiratory Factor 1 (NRF1) Orphan Gene (AID 2282987)
Settings: HepG2 NRF1 cis-element reporter, Attagene multiplex; actives raise or lower the signal
Active and inactive are the calls of the source. The calls were made as follows: active = hit-call score of the fitted dose curve at least 0.9, where 1 is the maximum; inactive = score below 0.9.
OUTCOME MEASURE: outcome

INSERT INTO assay_data (molecule, assayed_target, outcome_measure, result_value) VALUES
  ('CC(C)c1ccc(C(C)C)cc1', 'Nuclear respiratory factor 1 (Homo sapiens) (UniProt Q16656)', 'outcome', 'inactive'),
  ('CCCC(C)C=O (stereo not drawn)', 'Nuclear respiratory factor 1 (Homo sapiens) (UniProt Q16656)', 'outcome', 'inactive'),
  ('C=CC(C)(CCC=C(C)C)OC=O (stereo not drawn)', 'Nuclear respiratory factor 1 (Homo sapiens) (UniProt Q16656)', 'outcome', 'inactive');
